# experimentalSystem: human PHD2181-417 (Homo sapiens (Human), UniProt Q9GZT9)
# Sequence (Q9GZT9 181-417): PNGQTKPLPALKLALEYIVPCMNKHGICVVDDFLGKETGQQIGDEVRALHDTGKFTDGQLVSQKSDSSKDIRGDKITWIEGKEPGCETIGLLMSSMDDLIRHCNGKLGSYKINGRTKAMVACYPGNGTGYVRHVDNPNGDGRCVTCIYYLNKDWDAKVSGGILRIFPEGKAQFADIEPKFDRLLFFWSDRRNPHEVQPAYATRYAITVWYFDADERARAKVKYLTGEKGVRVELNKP
# protocolDetails: PHD2 enzyme activity assay ([14C]-succinic acid production);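 further: reaction ran 10 min with compound in Tris pH 7.5 buffer with catalase, DTT and ascorbate, labelled succinate freed of leftover 2-oxoglutarate by DNP precipitation, then beta counted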
# Type: biochemical
# experimentalConditions: PHD2181-417 polypeptide, HIF-1α peptide 10 μM, [5-14C]-2-oxoglutaric acid; 30 min pre-incubation; tested 10 μM to 3 nM
resultType: Enzyme pIC50

smilesStructure | Enzyme pIC50
O=C(O)c1cnn(-c2nc3cc(SCc4ccccc4Cl)c(Cl)cc3[nH]2)c1 | 6.8
N#Cc1ccccc1-c1ccc(CSc2cc3nc(-n4cc(C(=O)O)cn4)[nH]c3cc2Cl)cc1 | 7.5
Cc1ccc2c(n1)c(Br)cc1nc(-n3cc(C(=O)O)cn3)[nH]c12 | 7.2
N#Cc1ccccc1-c1ccc(CS(=O)(=O)c2cc3nc(-n4cc(C(=O)O)cn4)[nH]c3cc2Cl)cc1 | 7.7
O=C(O)c1cnn(-c2nc3cc(Sc4ccccc4)c(Cl)cc3[nH]2)c1 | 6.75
CC(=O)Nc1cc2nc(-n3cc(C(=O)O)cn3)[nH]c2cc1Cl | 6.3
O=C(O)c1cnn(-c2nc3cc(S(=O)(=O)Cc4ccccc4)c(Cl)cc3[nH]2)c1 | 7.5
CC(C)S(=O)(=O)c1cc2nc(-n3cc(C(=O)O)cn3)[nH]c2cc1F | 7.3
